// data source = ChEMBL document CHEMBL1201862

# Test system: HCC 2998
# measurement.notes: NCI tumour cell line growth inhibition, 48 h
Active and inactive are the calls of the source. Cut-off read from the data, not from the text of the source: active = GI50 up to about 1.1 µM and inactive = higher.
attribute.measured: GI50

Cc1cc(N(CCC#N)CCC#N)ccc1/C=C/C(=O)Nc1cccc(Cl)c1; > 100 µM (inactive)
Oc1cc(F)cc2cccnc12; 26.1 µM (inactive)
COc1cc2c(cc1OC)C(=O)N(c1ccc(O)cc1)C2; > 100 µM (inactive)
N=C(N)N/N=C/c1c(-c2cccc([N+](=O)[O-])c2)nc2n1CCS2; 19.4 µM (inactive)
COc1cc(/C=C2\CCc3ccccc3C2=O)cc(OC)c1OC; 18 µM (inactive)
CCn1c2ccccc2c2c(-c3ccccc3)cc3c(c21)C(=O)N(c1ccccc1)C3=O; > 100 µM (inactive)
COc1ccccc1NC(=O)C(CC(C(=O)Nc1ccccc1OC)/C(C)=N/NC(=O)c1ccccc1O)/C(C)=N/NC(=O)c1ccccc1O (stereo not given); > 100 µM (inactive)
COC(=O)C1=C(c2cc(OC)c(OC)c(OC)c2)O[C@H](c2ccc3c(c2)OCO3)[C@H]1COC(C)=O; 18.3 µM (inactive)

Task item: Query the reported GI50 for HCC 2998; item: `O=C(c1ccccc1Br)C(F)(F)F`
Reply: > 100 µM (inactive)

Task item: Also need CCOC(=O)C(CCCNC(=O)OC(C)(C)C)N(Cc1ccc(OC)cc1OC)C(=O)CC(=O)CP(=O)(OCC)OCC (stereo not given) , thanks.
Reply: > 100 µM (inactive)
